Molecular target: Estrogen receptor (Homo sapiens) (UniProt P03372)
Sequence (P03372 whole entry, looked up): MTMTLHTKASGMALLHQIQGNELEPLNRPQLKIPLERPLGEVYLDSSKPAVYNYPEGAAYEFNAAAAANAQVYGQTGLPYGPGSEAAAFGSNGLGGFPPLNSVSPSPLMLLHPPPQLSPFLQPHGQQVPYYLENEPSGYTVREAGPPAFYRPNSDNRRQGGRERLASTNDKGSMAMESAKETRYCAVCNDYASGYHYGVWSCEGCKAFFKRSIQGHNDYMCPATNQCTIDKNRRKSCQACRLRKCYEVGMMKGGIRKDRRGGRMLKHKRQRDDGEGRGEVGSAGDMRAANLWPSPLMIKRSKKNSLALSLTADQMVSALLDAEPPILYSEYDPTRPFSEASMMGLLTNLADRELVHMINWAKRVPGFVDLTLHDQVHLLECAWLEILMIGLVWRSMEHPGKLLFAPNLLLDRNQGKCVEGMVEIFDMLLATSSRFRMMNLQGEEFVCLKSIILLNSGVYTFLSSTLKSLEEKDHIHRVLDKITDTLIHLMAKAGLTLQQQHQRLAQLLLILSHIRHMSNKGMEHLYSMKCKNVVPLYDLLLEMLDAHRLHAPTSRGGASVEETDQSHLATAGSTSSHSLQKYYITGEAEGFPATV
Experiment: qHTS assay to identify small molecule antagonists of the estrogen receptor alpha (ER-alpha) signaling pathway (AID 743069)
Details: HEK293 ER-alpha-UAS-bla, beta-lactamase ratio, antagonist mode; series mostly up to 69.4 µM
Activity calls are given as the source filed them. The call rests on the fitted dose curve; in most records, active means well fitted curve in the direction sought with a large enough effect in the signal ratio in the repeat runs (not every such curve was filed as active); inconclusive means weak or mixed curves, or effect the other way; inactive means no such curve, though single readings can be large or run the other way; the % refers to the signal ratio.
Hi there, use one of these labels in your reply, thanks! YES = active, NO = inactive

compound: CCCOC(=O)c1ccccc1O
category label: NO

Recorded test outcome, item "CO[C@H]1C[C@H](O[C@H]2[C@H](C)[C@@H](O[C@@H]3O[C@H](C)C[C@H](N(C)C)[C@H]3O)[C@@H](C)C[C@]3(CO3)C(=O)[C@H](C)[C@@H](O)[C@@H](C)[C@@H](C)OC(=O)[C@@H]2C)O[C@@H](C)[C@@H]1O"
NO

Recorded test outcome, item CCCCCCCCCCCCCC(=O)OCC(COP(=O)([O-])OCC[N+](C)(C)C)OC(=O)CCCCCCCCCCCCC (stereo not drawn)
NO

Recorded test outcome, item "Nc1nc(NC2CC2)c2ncn([C@@H]3C=C[C@@H](CO)C3)c2n1"
NO

Recorded test outcome, item "O=C1[O][Bi][O]c2ccccc21"
NO

Recorded test outcome, item "CCCCCCCC/C=C\CCCCCCCC(=O)N(CCO)CCO"
YES

Recorded test outcome, item CC(C)(COP(=O)(O)OP(=O)(O)OC[C@H]1O[C@@H](n2cnc3c(N)ncnc32)[C@H](O)[C@@H]1OP(=O)(O)O)C(O)C(=O)NCCC(=O)NCCS (stereo partly drawn)
NO

Recorded test outcome, item CC12CCC(C[N+](C)(CCC[N+](C)(C)C)C1)C2(C)C (stereo not drawn)
NO

====

Experiment: qHTS assay to identify small molecule antagonists of the estrogen related receptor (ERR) signaling pathway (AID 1224819; further: nearly all actives have a fitted effect of over 50% in size)
Conditions: ERR reporter cell line, luciferase inhibition; series mostly up to 46.1 µM
Records with an inconclusive call do not appear. Active and inactive are the calls of the source. Calls come from the whole dose curve; as a rule, active = well fitted inhibition curve with a large enough effect in the repeat runs; inconclusive = weak or mixed curves; inactive = no such curve, though single readings can be large or run the other way.
Hi there, use one of these labels in your reply, thanks! active, inactive

Solved entries (count: 8):
compound: CSc1ccccc1N1CCN(CCCCCC(=O)NC2CCCc3ccccc32)CC1 (stereo unspecified)
category label: active

compound: NC1C=CC=C(C(=O)O)C1 (stereo unspecified)
category label: inactive

compound: NC(N)=NC(N)=Nc1ccccc1
category label: inactive

compound: CCOC(=O)C(C)Oc1cccc2c(=O)n(CC(=O)Nc3ccc4c(c3)OCCO4)ccc12 (stereo unspecified)
category label: inactive

compound: N#Cc1cc([N+](=O)[O-])c2sc(C(N)=O)[n+]([O-])c2c1
category label: inactive

compound: C=CCc1cccc(/C=N/NC(=O)CN2CCN(Cc3ccccc3)CC2)c1O
category label: active

compound: CCOC(=O)[C@H](CCc1ccccc1)N[C@@H](C)C(=O)N1[C@H](C(=O)O)C[C@H]2CCCC[C@@H]21
category label: inactive

compound: NCCNS(=O)(=O)c1cccc2c(Cl)cccc12
category label: inactive

Recorded test outcome, item "COc1cc(NS(C)(=O)=O)ccc1Nc1c2ccccc2nc2ccccc12"
active

Recorded test outcome, item "O=C(N[C@@H](Cc1ccccc1)C(=O)CCl)OCc1ccccc1"
active

Recorded test outcome, item "O=C(O)/C(=C/c1c(C(=O)O)[nH]c2cc(Cl)cc(Cl)c12)c1ccccc1"
inactive

====

Assay: Caspase-3/7 induction in CHO-K1 cells by small molecules, qHTS cell viability counter screen (AID 1346979); further: nearly all actives have a fitted effect of over 35% in size
Conditions: CellTiter-Fluor fluorescence, 17 h; series mostly up to 92.4 µM
Results filed as inconclusive are left out. Active and inactive are the calls of the source. Calls follow the shape of the dose curve; as a rule, active = well fitted cell-killing curve with a large enough effect in the repeat runs; inconclusive = weak or mixed curves, or effect the other way; inactive = no such curve, though single readings can be large or run the other way.
Hi there, use one of these labels in your reply, thanks! yes (1) for active, no (0) for inactive

Solved entries (count: 2):
molecule: C=C(C)CCO
category label: no (0)
//
molecule: CC(C)(C)c1cc(CCC(=O)OCCSCCOC(=O)CCc2cc(C(C)(C)C)c(O)c(C(C)(C)C)c2)cc(C(C)(C)C)c1O
category label: no (0)

Recorded test outcome, item "Clc1ccc2c(Cl)ccnc2c1"
no (0)

Recorded test outcome, item "C/C(=C\c1ccc(C(=O)O)cc1)c1ccc2c(c1)C(C)(C)CCC2(C)C"
no (0)

Recorded test outcome, item "C/C(=N\[Si](C)(C)C)O[Si](C)(C)C"
no (0)

Recorded test outcome, item "CCCCCCCCCCCCCCCCCCNC(=O)OC1CCN(C(=O)OC[C@H](COC(=O)N(Cc2cccc[n+]2CC)C(=O)c2ccccc2OC)OC)CC1"
yes (1)

Recorded test outcome, item "CCOC=C(C(=O)OCC)C(=O)OCC"
no (0)

Recorded test outcome, item Cc1ccc(C2OC[C@@H]3OC(c4ccc(C)cc4)O[C@H]([C@H](O)CO)[C@@H]3O2)cc1 (some centres not stated)
no (0)

Recorded test outcome, item "O=C1Cc2ccccc2C1"
yes (1)

Recorded test outcome, item "CC(=O)CC(N)=O"
no (0)

Recorded test outcome, item "Cn1ccnc1"
no (0)

Recorded test outcome, item "O=C1CCC(=O)N1"
no (0)

Recorded test outcome, item "c1ccc2cc3c4ccccc4c4ccccc4c3cc2c1"
yes (1)

Recorded test outcome, item "CN(C/C=C/c1ccccc1)Cc1cccc2ccccc12"
no (0)
